- target: Protein kinase C zeta type (Homo sapiens, UniProt Q05513, V297L)
- experiment notes: Inhibition of PKCzeta val297leu mutant (unknown origin) assessed as phosphorylation reaction after 4 mins incubation by cell-free assay
quantity measured: pIC50
In textbook form, pIC50 equals minus log to base ten of the concentration in mol/L.

The examples below pair each entry with its known result.
1) Oc1ccc(C2CC(c3ccccc3O)=NN2c2ccc(Cl)cc2)cc1 (stereo not drawn) ... 5.51
2) Oc1ccc(C2CC(c3cccs3)=NN2c2ccc(Br)cc2)cc1 (stereo not drawn) ... 6.00

Let us move to another entry and its pIC50.
Please tell me: pIC50 of CC(C)(C)C1=NN(c2ccc(Cl)cc2)C(c2ccc(O)c(Cl)c2)C1 (stereo not drawn) , system Protein kinase C zeta type (Homo sapiens, UniProt Q05513, V297L)? 4.83

* * *

- target: Protein kinase C zeta type (Homo sapiens, UniProt Q05513)
- Sequence (Q05513 whole entry): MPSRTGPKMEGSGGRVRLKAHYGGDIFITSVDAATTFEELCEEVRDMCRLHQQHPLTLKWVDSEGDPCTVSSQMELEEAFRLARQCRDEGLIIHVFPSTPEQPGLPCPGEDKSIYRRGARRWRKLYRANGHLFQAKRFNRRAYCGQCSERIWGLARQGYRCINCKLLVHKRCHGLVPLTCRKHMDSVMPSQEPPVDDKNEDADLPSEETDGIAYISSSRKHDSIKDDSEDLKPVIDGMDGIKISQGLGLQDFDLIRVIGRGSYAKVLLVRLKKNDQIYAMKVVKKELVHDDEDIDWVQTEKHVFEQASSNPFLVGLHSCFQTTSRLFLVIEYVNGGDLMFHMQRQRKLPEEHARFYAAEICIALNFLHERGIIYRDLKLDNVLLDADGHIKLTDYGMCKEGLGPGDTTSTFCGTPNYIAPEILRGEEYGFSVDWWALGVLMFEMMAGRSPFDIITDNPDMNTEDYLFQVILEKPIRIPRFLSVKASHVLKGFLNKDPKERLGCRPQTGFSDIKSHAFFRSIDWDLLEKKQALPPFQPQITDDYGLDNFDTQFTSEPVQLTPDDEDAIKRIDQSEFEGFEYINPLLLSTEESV
- experiment notes: Inhibition of human PKCzeta assessed as phosphorylation reaction after 4 mins incubation by cell-free assay
quantity measured: pIC50
Friendly reminder that pIC50 comes from taking -log10 of the concentration in mol/L.

// solved cases for pIC50 follow
1) Oc1ccc(C2CC(c3ccccc3O)=NN2c2ccc(Cl)cc2)cc1 (stereo not drawn) ... 5.82
2) CC(C)(C)C1=NN(c2ccc(Br)cc2)C(c2ccc(O)cc2)C1 (stereo not drawn) ... 4.94
3) CC(C)(C)C1=NN(c2ccc(C(F)(F)F)cc2)C(c2ccc(O)cc2)C1 (stereo not drawn) ... 5.06
4) Oc1ccc(C2CC(c3ccccc3O)=NN2c2cccc(Cl)c2)cc1F (stereo not drawn) ... 5.54

Quick check: pIC50 of CC(C)(C)C1=NN(c2ccc(F)cc2)C(c2ccc(O)cc2)C1 (stereo not drawn) ? 5.03

Which pIC50 reading was recorded for the molecule Oc1ccccc1C1=NN(c2cccc(Cl)c2)C(c2ccc(O)c(F)c2F)C1 (stereo not drawn) ? 5.18

Give its pIC50 value. Item: CC(C)(C)C1=NN(c2ccc(Cl)cc2)C(c2cccc(O)c2)C1 (stereo not drawn) 5.28

For the molecule Oc1ccc(C2CC(c3cccs3)=NN2c2ccc(C(F)(F)F)cc2)cc1 (stereo not drawn) , what pIC50 is on record? 6.40

What does the data say about its pIC50? Entry: CC(C)(C)C1=NN(c2ccc(Cl)cc2)C(c2ccc(O)c(F)c2)C1 (stereo not drawn) 5.42

Entry CC(C)(C)C1=NN(c2cccc(F)c2)C(c2ccc(O)cc2)C1 (stereo not drawn) : reported pIC50 = ? 5.66

Query: pIC50; subject: CC(C)(C)C1=NN(c2ccc(Cl)cc2)C(c2ccc(O)c(Cl)c2)C1 (stereo not drawn) 6.15

* * *

- target: Protein kinase C zeta type (Homo sapiens, UniProt Q05513)
- experiment notes: Inhibition of PKCzeta in human U937 cells assessed as inhibition of TNFalpha-induced NF-kappaB activation by reporter gene assay
- Assay type: cell-based, U-937
Note to self: IC50 under 2000 nM means true (1), ties and anything higher get false (0).

1. CC(C)(C)C1=NN(c2ccc(F)c(F)c2F)C(c2ccc(O)cc2)C1 (stereo unspecified) ... false (0)
2. CC(C)(C)C1=NN(c2ccc(Cl)cc2)C(c2ccc(O)c(F)c2)C1 (stereo unspecified) ... false (0)
3. Oc1ccccc1C1=NN(c2cccc(Cl)c2)C(c2cc(F)c(O)c(F)c2)C1 (stereo unspecified) ... false (0)
4. Oc1ccccc1C1=NN(c2cccc(Cl)c2)C(c2ccc(O)c(F)c2F)C1 (stereo unspecified) ... true (1)
5. CC(C)(C)C1=NN(c2ccc(Cl)cc2)C(c2ccc(O)c(Cl)c2)C1 (stereo unspecified) ... false (0)

Regarding CC(C)(C)C1=NN(c2ccc(F)c(Cl)c2)C(c2ccc(O)cc2)C1 (stereo unspecified) , kindly confirm whether its IC50 is beneath 2000 nM. true (1)

Say whether its IC50 is strictly beneath 2000 nM. Entry: Oc1ccc(C2CC(c3cccs3)=NN2c2ccc(C(F)(F)F)cc2)cc1 (stereo unspecified) false (0)

Strictly below 2000 nM in IC50? CC(C)(C)C1=NN(c2cccc(Cl)c2)C(c2ccc(F)c(O)c2)C1 (stereo unspecified) false (0)

In plain terms, does CC(C)(C)C1=NN(c2cccc(C(F)(F)F)c2)C(c2ccc(O)cc2)C1 (stereo unspecified) come in under 2000 nM for IC50? false (0)

Strictly below 2000 nM: is that where IC50 of Oc1ccc(C2=NN(c3cccc(Cl)c3)C(c3ccc(O)c(F)c3)C2)c(O)c1 (stereo unspecified) sits? true (1)

* * *

Listed here are compounds together with their documented inhibition.
- target: Nitric oxide synthase, inducible (Mus musculus)
- experiment notes: Inhibition of iNOS induction in mouse RAW264.7 cells assessed as NO production at 7.5 uM
- Format: cell-based
Only the number, expressed in %, is required.

# annotated cases, reported inhibition shown
1. CC(C)(C)C1=NN(c2ccc(Cl)cc2)C(c2ccc(O)cc2)C1 (configuration not stated) ... 50
2. Oc1ccc(C2CC(c3cccs3)=NN2c2ccc(C(F)(F)F)cc2)cc1 (configuration not stated) ... 69
3. CC(C)(C)C1=NN(c2ccccc2)C(c2ccc(O)cc2)C1 (configuration not stated) ... 32
4. CC(C)(C)C1=NN(c2ccccc2Cl)C(c2ccc(O)cc2)C1 (configuration not stated) ... 26
5. CC(C)(C)C1=NN(c2cccc(Cl)c2)C(c2ccc(F)c(O)c2)C1 (configuration not stated) ... 74

Give the reported inhibition for COc1cc(/C=C/C(=O)CC(=O)/C=C/c2ccc(O)c(OC)c2)ccc1O (system: Nitric oxide synthase, inducible (Mus musculus)). 97

Request body: readout inhibition, system Nitric oxide synthase, inducible (Mus musculus), query Oc1ccc(C2CC(c3cccs3)=NN2c2ccc(Br)cc2)cc1 (configuration not stated) . Return the value. 65

* * *

- target: Protein kinase C iota type (Homo sapiens)
- experiment notes: Inhibition of PKCiota (unknown origin) at 20 uM
quantity measured: inhibition (%)
// return numeric value only (unit: %, not printed)

Reported inhibition for Cc1cccc(N2N=C(C(C)(C)C)CC2c2ccc(O)cc2)c1 (stereo not drawn) : what is it? 13.9

Look up inhibition for this molecule: CC(C)(C)C1=NN(c2ccc(F)c(F)c2)C(c2ccc(O)cc2)C1 (stereo not drawn) 23.7

Which value of inhibition has been reported for Oc1ccc(C2CC(c3ccccc3O)=NN2c2cccc(Cl)c2)cc1F (stereo not drawn) in the records? 25.2

Fill in the blank: the reported inhibition of Oc1ccc(C2CC(c3ccccc3O)=NN2c2ccc(Cl)cc2)cc1 (stereo not drawn) is ____. 13.4

Entry under review: CC(C)(C)C1=NN(c2cccc(Cl)c2)C(c2ccc(O)cc2)C1 (stereo not drawn) . Reported inhibition? 43.5

* * *

- target: UniProt Q05513
- experiment notes: Inhibition of human PKCzeta assessed as phosphorylation reaction after 4 mins incubation by cell-free assay
quantity measured: IC50 (nM)
Output spec: scalar in nM, unitless text.

1) CC(C)(C)C1=NN(c2cccc(C(F)(F)F)c2)C(c2ccc(O)cc2)C1 (stereo unspecified) ... 2700
2) Oc1ccc(C2CC(c3ccccn3)=NN2c2cccc(Cl)c2)cc1 (stereo unspecified) ... 6200
3) Oc1ccc(C2CC(c3cccs3)=NN2c2ccc(Br)cc2)cc1 (stereo unspecified) ... 500

Can you share its IC50? I mean this compound: CC(C)(C)C1=NN(c2ccc(F)c(F)c2F)C(c2ccc(O)cc2)C1 (stereo unspecified) 700

Find the recorded IC50 belonging to CC(C)(C)C1=NN(c2cccc(Cl)c2)C(c2ccc(F)c(O)c2)C1 (stereo unspecified) and report it. 300

Given the compound Oc1ccccc1C1=NN(c2cccc(Cl)c2)C(c2cc(F)c(O)c(F)c2)C1 (stereo unspecified) , what is its reported IC50? 11100

IC50 lookup needed for Nc1ccc(C2=NN(c3ccc(Cl)cc3)C(c3ccc(O)cc3)C2)cc1 (stereo unspecified) , thanks. 5400

Recorded IC50 of CC(C)(C)C1=NN(c2cccc(Cl)c2)C(c2ccc(O)cc2)C1 (stereo unspecified) , please. 5200

Which IC50 reading was recorded for the compound Oc1ccc(C2CC(c3ccccc3)=NN2c2ccc(Cl)cc2)cc1 (stereo unspecified) ? 3500

Returns the measured IC50 for the input compound. Input: CC(C)(C)C1=NN(c2ccc(F)c(Cl)c2)C(c2ccc(O)cc2)C1 (stereo unspecified) 900

Report IC50 for Oc1ccc(C2CC(c3ccccc3)=NN2c2cccc(Cl)c2)cc1 (stereo unspecified) please. 2100
